Target or system UniProt:P01024; recorded quantity Kd.
Positions of bridges follow the written chain, without caps; N, C: chain ends. Non-standard residues stand in square brackets, D forms with d. Residues, ends and D or L forms follow the SMILES beside them. Trp(1-Me) = Cn1cc(C[C@H](N)C(=O)O)c2ccccc21; NMeI = CC[C@H](C)[C@H](NC)C(=O)O; Sar = CNCC(=O)O
Field: numeric (nM). Do not append units.

CC[C@H](C)[C@H](NC(=O)[C@H](N)Cc1ccc(O)cc1)C(=O)N[C@H]1CSSC[C@@H](C(=O)N(C)[C@H](C(N)=O)[C@@H](C)CC)NC(=O)[C@H](CCCNC(=N)N)NC(=O)[C@H](Cc2c[nH]cn2)NC(=O)[C@H](C)NC(=O)CN(C)C(=O)[C@H](Cc2c[nH]c3ccccc23)NC(=O)[C@H](CC(=O)O)NC(=O)[C@H](CCC(N)=O)NC(=O)[C@H](Cc2cn(C)c3ccccc23)NC(=O)[C@H]([C@@H](C)CC)NC1=O [Compound 48] (H-[dY]ICI[Trp(1-Me)]QDW[Sar]AHRC[NMeI]-NH2; disulfide 3-13); 0.12

Now turn to the next compound.
stdin: // output Kd; input CC[C@H](C)[C@H](NC(C)=O)C(=O)N[C@H]1CSSC[C@@H](C(=O)N[C@@H](CO)C(N)=O)NC(=O)[C@H](CCCNC(=N)N)NC(=O)[C@H](Cc2c[nH]cn2)NC(=O)[C@H](CCC(=O)O)NC(=O)CNC(=O)[C@H](Cc2c[nH]c3ccccc23)NC(=O)[C@H](CC(=O)O)NC(=O)[C@H](CCC(N)=O)NC(=O)[C@H](Cc2c[nH]c3ccccc23)NC(=O)[C@H]([C@@H](C)CC)NC1=O [Compound 21] (Ac-ICIWQDWGEHRCS-NH2; disulfide 2-12) ; system UniProt:P01024
stdout: 16
